- test_details: in vivo
- experimental_context: po, rat, treated orally, read-out: approximate LD50
measured_attribute: LD50

Exercise: Quick check: LD50 of `O=c1c(-c2nnn[nH]2)cnc2sc3ccccc3n12` ?
Key: 2000 to 5000 mg/kg
